- study.target: Protein kinase C delta type (Homo sapiens, UniProt Q05655)
- Sequence (Q05655 whole entry): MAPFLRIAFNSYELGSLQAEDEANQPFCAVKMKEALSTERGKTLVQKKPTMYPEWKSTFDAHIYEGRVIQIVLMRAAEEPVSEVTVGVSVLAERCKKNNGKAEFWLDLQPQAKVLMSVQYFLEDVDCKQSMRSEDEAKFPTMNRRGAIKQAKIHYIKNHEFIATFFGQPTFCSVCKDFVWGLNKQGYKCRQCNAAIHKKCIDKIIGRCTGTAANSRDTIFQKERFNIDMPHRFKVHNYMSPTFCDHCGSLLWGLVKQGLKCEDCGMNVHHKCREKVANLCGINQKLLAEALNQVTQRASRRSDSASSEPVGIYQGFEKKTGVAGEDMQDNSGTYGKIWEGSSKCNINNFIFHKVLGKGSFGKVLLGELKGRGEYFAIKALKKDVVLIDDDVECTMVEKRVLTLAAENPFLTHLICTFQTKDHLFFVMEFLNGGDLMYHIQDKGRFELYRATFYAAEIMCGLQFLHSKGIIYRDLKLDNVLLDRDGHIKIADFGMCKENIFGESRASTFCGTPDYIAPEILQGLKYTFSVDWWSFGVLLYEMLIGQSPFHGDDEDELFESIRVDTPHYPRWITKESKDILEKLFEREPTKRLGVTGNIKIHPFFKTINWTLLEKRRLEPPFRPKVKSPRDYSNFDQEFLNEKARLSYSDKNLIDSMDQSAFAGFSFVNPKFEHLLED
- assay.explanation: Displacement of [3H]phorbol 12,13-dibutyrate from PKC delta-C1A
quantity.name: Ki

compound.structure: CCCCCCCCc1cccc2c1CC[C@@H](CO)NC(=O)[C@H](C(C)C)N2C
quantity.name: Ki
reported.value: > 10 µM

---

- study.target: Protein kinase C beta type (Homo sapiens, UniProt P05771)
- Sequence (P05771 whole entry): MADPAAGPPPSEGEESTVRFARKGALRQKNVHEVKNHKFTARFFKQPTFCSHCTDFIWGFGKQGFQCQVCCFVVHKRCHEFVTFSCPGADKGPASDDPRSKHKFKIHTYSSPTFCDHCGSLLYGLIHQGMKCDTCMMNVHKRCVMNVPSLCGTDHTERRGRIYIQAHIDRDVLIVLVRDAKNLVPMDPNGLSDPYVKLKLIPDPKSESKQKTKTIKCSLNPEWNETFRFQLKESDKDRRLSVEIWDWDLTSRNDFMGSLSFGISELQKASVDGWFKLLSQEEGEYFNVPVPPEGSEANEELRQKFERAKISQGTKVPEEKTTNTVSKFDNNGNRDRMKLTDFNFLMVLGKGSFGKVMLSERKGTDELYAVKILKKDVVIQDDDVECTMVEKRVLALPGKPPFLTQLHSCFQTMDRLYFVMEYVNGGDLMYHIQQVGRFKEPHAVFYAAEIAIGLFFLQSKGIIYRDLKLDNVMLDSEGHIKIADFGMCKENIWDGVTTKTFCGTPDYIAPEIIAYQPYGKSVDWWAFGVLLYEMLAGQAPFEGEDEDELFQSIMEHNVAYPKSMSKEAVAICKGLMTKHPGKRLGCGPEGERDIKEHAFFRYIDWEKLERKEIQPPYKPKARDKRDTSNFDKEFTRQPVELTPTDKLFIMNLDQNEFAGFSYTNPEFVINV
- assay.explanation: Displacement of [3H]phorbol 12,13-dibutyrate from PKC beta-C1A
quantity.name: Ki

compound.structure: CCCCCCCCc1cccc2c1CC[C@@H](CO)NC(=O)[C@H](C(C)C)N2C
reported.value: > 10 µM

---

- study.target: Protein kinase C theta type (Homo sapiens)
- Sequence (Q04759 whole entry): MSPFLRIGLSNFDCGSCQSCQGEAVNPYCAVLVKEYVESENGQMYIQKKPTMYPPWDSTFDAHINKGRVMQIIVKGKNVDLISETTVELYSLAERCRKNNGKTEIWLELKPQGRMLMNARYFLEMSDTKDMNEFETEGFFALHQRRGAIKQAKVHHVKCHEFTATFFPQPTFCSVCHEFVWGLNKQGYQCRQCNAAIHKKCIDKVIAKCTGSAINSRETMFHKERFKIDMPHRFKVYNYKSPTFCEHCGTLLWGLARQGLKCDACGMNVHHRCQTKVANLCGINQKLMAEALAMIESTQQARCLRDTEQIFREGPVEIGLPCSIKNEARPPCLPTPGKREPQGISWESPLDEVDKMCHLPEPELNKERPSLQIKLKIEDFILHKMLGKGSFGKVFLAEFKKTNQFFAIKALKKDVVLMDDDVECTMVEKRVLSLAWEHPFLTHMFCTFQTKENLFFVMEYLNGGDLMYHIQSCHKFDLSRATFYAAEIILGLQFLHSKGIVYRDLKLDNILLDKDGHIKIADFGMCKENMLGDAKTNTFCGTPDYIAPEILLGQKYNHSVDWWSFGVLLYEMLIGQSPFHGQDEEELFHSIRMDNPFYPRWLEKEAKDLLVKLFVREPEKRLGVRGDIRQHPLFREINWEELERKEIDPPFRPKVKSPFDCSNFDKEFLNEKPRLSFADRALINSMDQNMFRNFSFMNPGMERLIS
quantity.name: Ki (nM)

compound.structure: CCCCCCCCc1cccc2c1CC[C@@H](CO)NC(=O)[C@H](C(C)C)N2C
reported.value: 290
